// provenance: ChEMBL document CHEMBL3407399

# test: Antioxidant activity assessed as OH free radical scavenging activity produced from dimethylpyridine-N-oxide by ESR assay
# Format: physicochemical
quantity.name: EC50 (µM)
Kindly answer with a numeric value in µM, unit omitted.

Value of EC50 reported for the compound COC(=O)c1cc(-c2nc(C(=O)OCc3ccccc3)cc3c2[nH]c2ccccc23)ccc1O is 0.17

---

# Test system: HT-29
# test: Antiproliferative activity against human HT-29 cells assessed as cell viability after 48 hrs by MTT assay
# Type: functional, cell-based
# experimental.context: HT-29, 48 h
quantity.name: IC50 (nM)
Kindly answer with a numeric value in nM, unit omitted.

Value of IC50 reported for the molecule COC(=O)c1cc(-c2nc(C(=O)OCc3ccccc3)cc3c2[nH]c2ccccc23)ccc1O is 960
